This collection of values is drawn from ChEMBL document CHEMBL4346703.

# ASSAY_EXPLANATION: Half-life in Beagle dog
# Format: ADME, Canis lupus familiaris
# RUN_CONDITIONS: in vivo
EXPERIMENTAL_READOUT: half-life (h)
Dear colleague, please return just the value in h, with no unit written.

Incoming: Which half-life reading was recorded for the compound "CCn1ncc(-c2nc3c(O[C@H]4CCN(C(=O)C5CCOCC5)C4)ncnc3n2C)c1C" ?
Outgoing: 1.5

Incoming: Which half-life is reported for this compound? "CCn1ncc(-c2nc3c(N4CCC(n5c(=O)[nH]c6ncccc65)CC4)ncnc3n2C)c1C"
Outgoing: 1.1

Incoming: Name the recorded half-life for "CCn1ncc(-c2nc3c(O[C@H]4CCN(C(=O)C5CC5)C4)ncnc3n2C)c1C" .
Outgoing: 2.7

Incoming: Record request: half-life value, item "CC[C@H](Nc1ncnc2c1nc(-c1cnn(CC)c1C)n2C)C(=O)N1C[C@@H](C)O[C@@H](C)C1"
Outgoing: 1.2
